experiment: Cytotoxicity assay in Vero E6 cells (neutral red uptake); assay type: cell-based; settings: African green monkey; Vero E6 cells, 2 days at 37° C., neutral red uptake; read-out: Vero CC50
Provide the recorded CC50 at 2 days for the entries that follow.
Supply the numeric figure in µM, leaving out any unit text.

Find the recorded CC50 at 2 days belonging to `COCCn1cc(-c2cc([C@@H](C)NC(=O)c3cc(OCCN(C)C)ccc3C)c3ccccc3n2)cn1` and report it.
200

Find the recorded CC50 at 2 days belonging to `Cc1ccc(OCCN(C)C)cc1C(=O)N[C@H](C)c1cc(-c2cncn2C)nc2ccccc12` and report it.
79.5

Find the recorded CC50 at 2 days belonging to `Cc1ccc(OCCN(C)C)cc1C(=O)N[C@@H](C)c1cc(-c2cnn(C(F)F)c2)nc2ccccc12` and report it.
47.1

Find the recorded CC50 at 2 days belonging to `Cc1ccc(N2CCN(C)C3(CC3)C2)cc1C(=O)N[C@H](C)c1cc(-c2cnn(C)c2)nc2ccccc12` and report it.
49.7

Find the recorded CC50 at 2 days belonging to `Cc1ccc(N2C[C@H]3CN(C)C[C@H]3C2)cc1C(=O)NC1(c2cc(-c3cnn(C)c3)nc3ccccc23)CC1` and report it.
56.1
